Cited source for all entries: patent US20180086841A1

Measured pEC50 values are reported for all entries that follow.
Target: T1, human CD27 (human, UniProt P26842 21-260)
T1 construct: also called hCD27; HsCD27
Test: flow cytometry MFI, CD4+ T cells of human PBMC, N=2 donors
Just the number, please; pEC50 means minus log10 of the concentration in mol/L.

Here are 2 binders together with their reported answers.
BINDER	pEC50
hCD27.131A VH6VL8 huIgG1 (antibody, V domains shown) VH: EIQLVQSGAEVKKPGASVKVSCKASGYTFTNYGMNWVKQAPGQGLKWMGWINTNTGEPTYAEEFKGRFTFTLDTSISTAYMELSSLRSEDTAVYYCAREGDAMDYWGQGTTVTVSS VL: EIVLTQSPATLSASPGERVTLSCSASSSVSYMHWYQQKPGQAPKRWIYDTSKLASGVPARFSGSGSGTDYSLTISSMEPEDFAVYYCQQWNSYPFTFGQGTKLEIK	9.90
hCD27.131A VH9VL9 huIgG1 (antibody, V domains shown) VH: EIQLVQSGAEVKKPGASVKVSCKASGYTFTNYGMNWVRQAPGQGLKWMGWINTNTGEPTYAEEFKGRFTFTLDTSASTAYMELSSLRSEDTAVYYCAREGDAMDYWGQGTTVTVSS VL: DIQLTQSPSTLSASVGDRVTITCSASSSVSYMHWYQQKPGKAPKRWIYDTSKLASGVPARFSGSGSGTDYTLTISSLQPEDFATYYCQQWNSYPFTFGQGTKLEIK	10.11

Switching to the query record.
Request: For hCD27.131A VH8VL6 huIgG1 (antibody, V domains shown) VH: EIQLVQSGAEVKKPGASVKVSCKASGYTFTNYGMNWVKQAPGQGLKWMGWINTNTGEPTYAEEFKGRFTFTLDTSISTAYMELSSLRNEDTAVYYCAREGDAMDYWGQGTTVTVSS VL: EIVLTQSPATLSLSPGERATLSCSASSSVSYMHWYQQKPGQAPKRWIYDTSKLASGVPARFSGSGSGTDYSLTISSLEPEDFAVYYCQQWNSYPFTFGQGTKLEIK , write its pEC50.
Result: 9.91
